System: Trypanosoma cruzi epimastigotes (STIB 980 strain)
Assay: Activity on T. cruzi epimastigotes (resazurin, 72 h)
Type: cell-based
Conditions: STIB980, STIB 980 strain, 72 h, n = 3, read-out: Epimastigotes (mean ± SD) EC90
Structures can show the parent of a compound that is named as a salt.
ASSAY READOUT: EC90

Request: Any idea what its EC90 is? The compound is `CC[C@@H]([C@H](C)O)n1ncn(-c2ccc(N3CCN(c4ccc(OC[C@@H]5CO[C@@](Cn6cncn6)(c6ccc(F)cc6F)C5)cc4)CC3)cc2)c1=O`
Result: > 14.2 µM

Request: Any idea what its EC90 is? The compound is NC1CN2CCC1CC2 (stereo not drawn) [3-Amino quinuclidine dihydrochloride, 3-Amino quinuclidine]
Result: > 502 µM

Request: Any idea what its EC90 is? The compound is `Cc1cc2ncc(NC(=O)Nc3ccc(F)cc3F)c(-c3ccccc3Cl)c2cc1C`
Result: > 228 µM

Request: Any idea what its EC90 is? The compound is C1CN2CCC1CC2 [Quinuclidine hydrochloride, Quinuclidine]
Result: > 677 µM

Request: Any idea what its EC90 is? The compound is CCCCCCCCCC(=O)NC(CN1CCOCC1)C(O)c1ccccc1 (stereo not drawn) [PDMP (hydrochloride), PDMP]
Result: 88.7 µM

Request: Any idea what its EC90 is? The compound is `CCCCCCCCc1ccc(CCC(N)(CO)CO)cc1`
Result: 11.6 µM
